The measured values listed here are drawn from patent US20230265151A1.

- target: human GLP-1 receptor (human, UniProt P43220 24-463)
- assay-notes: cell-based or functional assay
Measured cAMP Emax (1.0% HSA) accompanies every entry in the list below.
Unit % implied. Number only.

YXEGTXTSDYXIXLDXIAQXKFIXXLIEGGPSSGAPPPSK (Y-Aib-EGT-αMeF(2F)-TSDY-Aib-I-αMeL-LD-Orn-IAQ-Aib-K((2-[2-(2-Amino-ethoxy)-ethoxy]-acetyl)2-(γ-Glu)-(10-(4-carboxyphenoxy)decanoyl))FI-(D-Glu)-αMeY-LIEGGPSSGAPPPSK((2-[2-(2-Amino-ethoxy)-ethoxy]-acetyl)2-(γ-Glu)-(10-(4-carboxyphenoxy)decanoyl))-NH2) [Example 241] | 105
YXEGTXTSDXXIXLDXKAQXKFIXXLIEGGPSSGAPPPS (Y-Aib-EGT-αMeF(2F)-TSD-4Pal-Aib-I-αMeL-LD-Orn-K((2-[2-(2-Amino-ethoxy)-ethoxy]-acetyl)2-(γ-Glu)-CO-(CH2)10-CH3)AQ-Aib-K((2-[2-(2-Amino-ethoxy)-ethoxy]-acetyl)2-(γ-Glu)-CO-(CH2)10-CH3)FI-(D-Glu)-αMeY-LIEGGPSSGAPPPS-NH2) [Example 322] | 94.5
YXEGTXTSDYXIXLDXIAQXEFIKXLIKGGPSSGAPPPS (Y-Aib-EGT-αMeF(2F)-TSDY-Aib-I-αMeL-LD-Orn-IAQ-Aib-EFIK((2-[2-(2-Amino-ethoxy)-ethoxy]-acetyl)3-(γ-Glu)-CO-(CH2)12-CO2H)-αMeY-LIK((2-[2-(2-Amino-ethoxy)-ethoxy]-acetyl)3-(γ-Glu)-CO-(CH2)12-CO2H)GGPSSGAPPPS-NH2) [Example 343] | 98.2
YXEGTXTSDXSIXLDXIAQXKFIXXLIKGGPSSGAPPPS (Y-Aib-EGT-αMeF(2F)-TSD-hTyr-SI-αMeL-LD-Orn-IAQ-Aib-K((2-[2-(2-Amino-ethoxy)-ethoxy]-acetyl)2-(γ-Glu)-(10-(4-carboxyphenoxy)decanoyl))FI-(D-Glu)-αMeY-LIK((2-[2-(2-Amino-ethoxy)-ethoxy]-acetyl)2-(γ-Glu)-(10-(4-carboxyphenoxy)decanoyl))GGPSSGAPPPS-NH2) [Example 332] | 116
YXEGTXTSDXXIXLDXIAQXKFIXXLIKGGPSSGAPPPS (Y-Aib-EGT-αMeF(2F)-TSD-4Pal-Aib-I-αMeL-LD-Orn-IAQ-Aib-K((2-[2-(2-Amino-ethoxy)-ethoxy]-acetyl)-(γ-Glu)-CO-(CH2)12-CO2H)FI-(D-Glu)-αMeY-LIK((2-[2-(2-Amino-ethoxy)-ethoxy]-acetyl)-(γ-Glu)-CO-(CH2)12-CO2H)GGPSSGAPPPS-NH2) [Example 340] | 112
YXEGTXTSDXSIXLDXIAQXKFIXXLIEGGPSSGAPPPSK (Y-Aib-EGT-αMeF(2F)-TSD-4Pal-SI-αMeL-LD-Orn-IAQ-Aib-K(2-[2-(2-Amino-ethoxy)-ethoxy]-acetyl)2-(γ-Glu)-(11-(4-carboxyphenoxy)undecanoyl)FI-(D-Glu)-αMeY-LIEGGPSSGAPPPSK((2-[2-(2-Amino-ethoxy)-ethoxy]-acetyl)2-(γ-Glu)-(11-(4-carboxyphenoxy)undecanoyl)-NH2)) [Example 288] | 123
YXEGTXTSDXSIXLDXIAQXEFIXXLIKGGPSSGAPPPSK (Y-Aib-EGT-αMeF(2F)-TSD-4Pal-SI-αMeL-LD-Orn-IAQ-Aib-EFI-(D-Glu)-αMeY-LIK((2-[2-(2-Amino-ethoxy)-ethoxy]-acetyl)2-CO-(CH2)12-CO2H)GGPSSGAPPPSK((2-[2-(2-Amino-ethoxy)-ethoxy]-acetyl)2-CO-(CH2)12-CO2H)-NH2) [Example 223] | 115
YXEGTXTSDYXIXLDXIAQXKFIXXLIKGGPSSGAPPPS (Y-Aib-EGT-αMeF(2F)-TSDY-Aib-I-αMeL-LD-Orn-IAQ-Aib-K((2-[2-(2-Amino-ethoxy)-ethoxy]-acetyl)2-(γ-Glu)-CO-(CH2)12-CO2H)Fl-(D-Glu)-αMeY-LIK((2-[2-(2-Amino-ethoxy)-ethoxy]-acetyl)2-(γ-Glu)-CO-(CH2)12-CO2H)GGPSSGAPPPS-NH2) [Example 234] | 102

Prompt line: Item under review: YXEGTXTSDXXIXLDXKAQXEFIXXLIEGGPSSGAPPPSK (Y-Aib-EGT-αMeF(2F)-TSD-4Pal-Aib-I-αMeL-LD-Orn-K((2-[2-(2-Amino-ethoxy)-ethoxy]-acetyl)2-(γ-Glu)-(10-(4-carboxyphenoxy)decanoyl))AQ-Aib-EFI-(D-Glu)-αMeY-LIEGGPSSGAPPPSK((2-[2-(2-Amino-ethoxy)-ethoxy]-acetyl)2-(γ-Glu)-(10-(4-carboxyphenoxy)decanoyl))-NH2) [Example 245] . Reported cAMP Emax (1.0% HSA)?
Response line: 93.8

Prompt line: Item under review: YXEGTXTSDKSIXLDXKAQXEXIXXLIEGGPSSGAPPPS (Y-Aib-EGT-αMeF(2F)-TSDK((2-[2-(2-Amino-ethoxy)-ethoxy]-acetyl)2-(γ-Glu)-CO-(CH2)10-CH3)SI-αMeL-LD-Orn-K((2-[2-(2-Amino-ethoxy)-ethoxy]-acetyl)2-(γ-Glu)-CO-(CH2)10-CH3)AQ-Aib-E-αMeF-I-(D-Glu)-αMeY-LIEGGPSSGAPPPS-NH2) [Example 293] . Reported cAMP Emax (1.0% HSA)?
Response line: 99.4

Prompt line: Item under review: YXEGTXTSDXXIXLDXIAQXEFIKXLIKGGPSSGAPPPS (Y-Aib-EGT-αMeF(2F)-TSD-4Pal-Aib-I-αMeL-LD-Orn-IAQ-Aib-EFIK((2-[2-(2-Amino-ethoxy)-ethoxy]-acetyl)-(γ-Glu)-CO-(CH2)12-CO2H)-αMeY-LIK((2-[2-(2-Amino-ethoxy)-ethoxy]-acetyl)-(γ-Glu)-CO-(CH2)12-CO2H)GGPSSGAPPPS-NH2) [Example 339] . Reported cAMP Emax (1.0% HSA)?
Response line: 115

Prompt line: Item under review: YXEGTXTSDXXIXLDXIAQXXFIKXLIKGGPSSGAPPPS (Y-Aib-EGT-αMeF(2F)-TSD-4Pal-Aib-I-αMeL-LD-Orn-IAQ-Aib-Orn-FIK((2-[2-(2-Amino-ethoxy)-ethoxy]-acetyl)2-(γ-Glu)-CO-(CH2)12-CO2H)-αMeY-LIK((2-[2-(2-Amino-ethoxy)-ethoxy]-acetyl)2-(γ-Glu)-CO-(CH2)12-CO2H)GGPSSGAPPPS-NH2) [Example 315] . Reported cAMP Emax (1.0% HSA)?
Response line: 93.5

Prompt line: Item under review: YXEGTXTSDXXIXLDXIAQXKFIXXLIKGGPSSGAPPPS (Y-Aib-EGT-αMeF(2F)-TSD-4Pal-Aib-I-αMeL-LD-Orn-IAQ-Aib-K((2-[2-(2-Amino-ethoxy)-ethoxy]-acetyl)2-(γ-Glu)-(10-(4-carboxyphenoxy)decanoyl))FI-(D-Glu)-αMeY-LIK((2-[2-(2-Amino-ethoxy)-ethoxy]-acetyl)2-(γ-Glu)-(10-(4-carboxyphenoxy)decanoyl))GGPSSGAPPPS-NH2) [Example 247] . Reported cAMP Emax (1.0% HSA)?
Response line: 109
